# tested on: Homeodomain-interacting protein kinase 2 (Homo sapiens) (UniProt Q9H2X6)
# Sequence (Q9H2X6 whole entry, looked up): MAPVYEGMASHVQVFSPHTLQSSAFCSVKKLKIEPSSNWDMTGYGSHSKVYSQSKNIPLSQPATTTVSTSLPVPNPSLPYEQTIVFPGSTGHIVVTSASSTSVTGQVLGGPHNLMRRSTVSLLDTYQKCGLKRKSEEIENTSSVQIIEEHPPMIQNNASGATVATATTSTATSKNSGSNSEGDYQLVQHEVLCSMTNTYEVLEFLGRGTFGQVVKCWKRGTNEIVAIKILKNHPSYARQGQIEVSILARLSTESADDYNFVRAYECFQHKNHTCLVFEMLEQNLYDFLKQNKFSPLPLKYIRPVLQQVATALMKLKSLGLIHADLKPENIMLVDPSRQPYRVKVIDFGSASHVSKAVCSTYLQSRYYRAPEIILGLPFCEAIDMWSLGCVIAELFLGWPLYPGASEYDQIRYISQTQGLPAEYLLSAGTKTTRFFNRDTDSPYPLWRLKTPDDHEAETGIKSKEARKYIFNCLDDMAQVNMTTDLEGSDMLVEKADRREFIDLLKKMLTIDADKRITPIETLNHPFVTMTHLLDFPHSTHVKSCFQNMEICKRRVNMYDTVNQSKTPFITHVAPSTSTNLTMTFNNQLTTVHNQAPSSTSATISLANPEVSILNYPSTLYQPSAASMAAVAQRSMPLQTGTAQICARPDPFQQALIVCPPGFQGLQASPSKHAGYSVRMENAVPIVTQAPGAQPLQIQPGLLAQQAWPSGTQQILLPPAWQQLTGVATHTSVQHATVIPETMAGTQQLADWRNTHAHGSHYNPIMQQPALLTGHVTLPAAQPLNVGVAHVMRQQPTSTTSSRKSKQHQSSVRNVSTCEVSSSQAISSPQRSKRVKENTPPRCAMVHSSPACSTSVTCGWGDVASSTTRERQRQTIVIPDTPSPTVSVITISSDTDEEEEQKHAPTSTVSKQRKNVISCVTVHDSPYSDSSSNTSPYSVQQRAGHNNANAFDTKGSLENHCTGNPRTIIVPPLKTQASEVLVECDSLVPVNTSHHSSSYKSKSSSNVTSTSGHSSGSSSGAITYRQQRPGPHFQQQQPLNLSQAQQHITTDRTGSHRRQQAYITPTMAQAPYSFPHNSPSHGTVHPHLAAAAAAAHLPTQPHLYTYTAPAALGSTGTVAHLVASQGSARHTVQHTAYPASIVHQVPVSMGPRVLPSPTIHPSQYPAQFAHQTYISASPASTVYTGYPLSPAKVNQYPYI
# applied conditions: at 10 µM
# if value of residual activity reaches 80%, tag Satisfied; if it stays below, tag Not satisfied

Task: Has "CC(C)[C@H](CO)Nc1nc(Nc2cccc(Cl)c2)c2ncn(C(C)C)c2n1" a recorded residual activity greater than or equal to 80%?
Result: Not satisfied

Task: Please indicate if the recorded residual activity for "CC(C)(C)c1cc(C=C(C#N)C#N)cc(Br)c1O" meets or exceeds 80%.
Result: Not satisfied

###

# tested on: Serine/threonine-protein kinase ULK2 (Homo sapiens) (UniProt Q8IYT8)
# Sequence (Q8IYT8 whole entry): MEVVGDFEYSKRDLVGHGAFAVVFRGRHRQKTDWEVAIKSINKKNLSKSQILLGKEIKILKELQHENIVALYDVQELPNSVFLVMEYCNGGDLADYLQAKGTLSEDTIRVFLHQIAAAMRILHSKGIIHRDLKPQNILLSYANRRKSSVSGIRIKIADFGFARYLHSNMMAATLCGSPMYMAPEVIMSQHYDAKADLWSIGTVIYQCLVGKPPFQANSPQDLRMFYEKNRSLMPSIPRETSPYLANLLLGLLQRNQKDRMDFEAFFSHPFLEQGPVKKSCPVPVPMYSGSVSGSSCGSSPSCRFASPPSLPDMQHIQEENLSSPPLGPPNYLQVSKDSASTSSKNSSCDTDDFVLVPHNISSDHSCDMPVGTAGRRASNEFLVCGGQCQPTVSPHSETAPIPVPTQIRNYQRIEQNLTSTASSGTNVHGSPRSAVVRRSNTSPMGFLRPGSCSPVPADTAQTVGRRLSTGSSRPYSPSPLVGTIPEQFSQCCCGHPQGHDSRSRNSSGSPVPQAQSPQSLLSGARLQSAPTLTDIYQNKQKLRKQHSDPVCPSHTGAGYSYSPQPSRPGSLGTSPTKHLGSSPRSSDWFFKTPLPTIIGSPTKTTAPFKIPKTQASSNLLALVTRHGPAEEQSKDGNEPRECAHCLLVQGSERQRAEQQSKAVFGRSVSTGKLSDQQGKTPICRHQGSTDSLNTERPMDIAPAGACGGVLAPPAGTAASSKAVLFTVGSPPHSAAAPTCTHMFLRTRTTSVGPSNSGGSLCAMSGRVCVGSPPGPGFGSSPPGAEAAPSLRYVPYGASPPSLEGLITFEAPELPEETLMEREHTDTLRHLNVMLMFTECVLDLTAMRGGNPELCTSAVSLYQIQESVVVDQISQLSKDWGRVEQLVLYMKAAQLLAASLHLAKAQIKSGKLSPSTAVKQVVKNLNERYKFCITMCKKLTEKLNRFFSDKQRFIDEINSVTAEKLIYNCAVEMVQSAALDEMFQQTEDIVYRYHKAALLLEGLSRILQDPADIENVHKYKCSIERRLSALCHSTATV
# applied conditions: at 10 µM
The label true is reserved for residual activity strictly under 20%; false covers values equal to or above it.

Reference set (3 entries):
compound string	label
O=c1[nH]c2ccccc2n1C1CCN(Cc2ccc(-c3nc4cc5[nH]cnc5cc4nc3-c3ccccc3)cc2)CC1	false
CCn1cnc2c(Nc3cccc(Cl)c3)nc(N[C@@H]3CCCC[C@@H]3N)nc21	true
COC(=O)[C@@]1(O)C[C@H]2O[C@]1(C)n1c3ccccc3c3c4c(c5c6ccccc6n2c5c31)C(=O)NC4	true

Task: API: query returns whether the compound falls strictly under 20% in residual activity. Query: "O=C1Nc2ccc3ncsc3c2/C1=C/c1c[nH]cn1"
Result: true

Task: Quick check: residual activity of "CC(C)[C@H](CO)Nc1nc(Nc2cccc(Cl)c2)c2ncn(C(C)C)c2n1" under 20%?
Result: false

Task: Please check: residual activity for "O=C1c2ccccc2-c2nc3nnnn3nc21" , strictly under 20% or not?
Result: false

Task: Take the compound "COc1ccc2c(c1)/C(=C/c1cnc[nH]1)C(=O)N2" and say whether its residual activity is less than 20%.
Result: false

Task: Strictly below 20%: is that where residual activity of "CCc1nc(-c2ccc(OC)cc2)[nH]c1-c1ccncc1" sits?
Result: false

Task: Dear reviewer, please state whether "c1cc(-c2cnn3cc(-c4ccc(OCCN5CCCCC5)cc4)cnc23)ccn1" has residual activity strictly beneath 20%.
Result: true

Task: A record lists "COc1cc2ncnc(Nc3ccc(OCc4ccccc4)cc3)c2cc1OC" . Is its residual activity below 20%?
Result: false

###

# tested on: Mitogen-activated protein kinase 12 (Homo sapiens) (UniProt P53778)
# Sequence (whole entry): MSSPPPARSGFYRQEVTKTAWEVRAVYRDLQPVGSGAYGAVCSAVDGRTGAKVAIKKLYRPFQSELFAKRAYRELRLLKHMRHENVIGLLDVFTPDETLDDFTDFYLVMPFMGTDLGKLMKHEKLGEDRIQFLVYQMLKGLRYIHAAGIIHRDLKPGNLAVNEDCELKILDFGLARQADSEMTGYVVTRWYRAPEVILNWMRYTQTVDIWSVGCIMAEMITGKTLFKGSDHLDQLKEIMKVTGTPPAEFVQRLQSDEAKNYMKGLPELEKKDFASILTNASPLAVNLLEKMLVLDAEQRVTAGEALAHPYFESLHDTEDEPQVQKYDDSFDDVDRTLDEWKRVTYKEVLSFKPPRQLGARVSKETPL
# applied conditions: at 10 µM
test readout: residual activity (%)
Just the number please, in %, no unit attached.

Worked examples, 2 compounds total:
compound	tested on	units	residual activity
N#C/C(=C(\N)Sc1ccc(N)cc1)c1ccccc1C(F)(F)F	Mitogen-activated protein kinase 12 (Homo sapiens) (UniProt P53778)	%	105
COc1ccc(S(=O)(=O)N(CCO)c2ccccc2CN(C)C/C=C/c2ccc(Cl)cc2)cc1	Mitogen-activated protein kinase 12 (Homo sapiens) (UniProt P53778)	%	95

Task: Write down the reported residual activity of "COc1cc2ncnc(N3CCN(C(=O)Nc4ccc(Oc5ccccc5)cc4)CC3)c2cc1OC" , test system: Mitogen-activated protein kinase 12 (Homo sapiens) (UniProt P53778).
Result: 99

Task: Given the entry "Nc1ncnc2c1c(-c1ccc(Oc3ccccc3)cc1)cn2C1CCCC1" , what residual activity was observed with Mitogen-activated protein kinase 12 (Homo sapiens) (UniProt P53778)?
Result: 97

Task: What value of residual activity on Mitogen-activated protein kinase 12 (Homo sapiens) (UniProt P53778) does "COc1ccc2c(c1)c(C1=C(c3c[nH]c4ccccc34)C(=O)NC1=O)cn2CCCN(C)C" have?
Result: 100

Task: Lab request: please report residual activity under test system Mitogen-activated protein kinase 12 (Homo sapiens) (UniProt P53778) for "COc1ccc(CNc2nc(N(CCO)CCO)nc3c2ncn3C(C)C)cc1"
Result: 99

Task: Mitogen-activated protein kinase 12 (Homo sapiens) (UniProt P53778) / residual activity / "CO[C@H]1[C@@H](OC)C[C@H](C)[C@@H](OC)C2=CC(=O)C=C(NC(=O)/C(C)=C/C=C/[C@H](OC)[C@@H](OC(N)=O)/C(C)=C/[C@@H]1C)C2=O" : value?
Result: 99

Task: Identify the measured residual activity of C[S+]([O-])c1ccc(-c2nc(-c3ccc(F)cc3)c(-c3ccncc3)[nH]2)cc1 (centres undefined) for Mitogen-activated protein kinase 12 (Homo sapiens) (UniProt P53778).
Result: 86

Task: Write down the reported residual activity of "O=C1c2ccccc2-[n+]2ccc3c([nH]c4ccccc43)c21" , test system: Mitogen-activated protein kinase 12 (Homo sapiens) (UniProt P53778).
Result: 100

###

# Lookup of reported residual activity keyed by entry
# tested on: Discoidin domain-containing receptor 2 (Homo sapiens)
# applied conditions: at 10 µM
# number then unit; no other words

Completed entries (count: 4):
compound	result
N/C(=N\[N+](=O)[O-])N/N=C\c1ccc(-c2cccc([N+](=O)[O-])c2)o1	99%
COc1cc2ncnc(Nc3ccc(OCc4ccccc4)cc3)c2cc1OC	93%
O=[N+]([O-])/C=C/c1ccc2c(c1)OCO2	97%
c1cc(-c2cnn3cc(-c4ccc(OCCN5CCCCC5)cc4)cnc23)ccn1	69%

// next item, residual activity requested
Task: If you can, please state the reported residual activity value of C[S+]([O-])c1ccc(-c2nc(-c3ccc(F)cc3)c(-c3ccncc3)[nH]2)cc1 (stereo not given) .
Result: 46%

###

# tested on: Serine/threonine-protein kinase pim-1 (Homo sapiens) (UniProt P11309)
# Sequence (P11309 whole entry, looked up): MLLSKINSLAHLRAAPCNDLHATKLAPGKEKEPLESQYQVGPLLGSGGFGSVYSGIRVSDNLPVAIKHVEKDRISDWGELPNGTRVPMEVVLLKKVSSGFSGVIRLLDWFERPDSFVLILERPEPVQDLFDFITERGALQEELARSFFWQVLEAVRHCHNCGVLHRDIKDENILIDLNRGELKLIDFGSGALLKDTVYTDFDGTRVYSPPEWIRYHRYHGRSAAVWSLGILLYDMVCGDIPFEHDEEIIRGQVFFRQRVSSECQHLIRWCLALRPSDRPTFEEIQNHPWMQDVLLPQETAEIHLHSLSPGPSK
# applied conditions: at 10 µM
test readout: residual activity (%)
Your answer should be a plain number; it is taken to be in %.

molecule	tested on	residual activity [%]
CC(C)(C)c1cc(C=C(C#N)C#N)cc(Br)c1O	Serine/threonine-protein kinase pim-1 (Homo sapiens) (UniProt P11309)	51
C[S+]([O-])c1ccc(-c2nc(-c3ccc(F)cc3)c(-c3ccncc3)[nH]2)cc1 (configuration not stated)	Serine/threonine-protein kinase pim-1 (Homo sapiens) (UniProt P11309)	97
CC(C)[C@H](CO)Nc1nc(Nc2cccc(Cl)c2)c2ncn(C(C)C)c2n1	Serine/threonine-protein kinase pim-1 (Homo sapiens) (UniProt P11309)	68
O=c1[nH]c2ccccc2n1C1CCN(Cc2ccc(-c3nc4cc5[nH]cnc5cc4nc3-c3ccccc3)cc2)CC1	Serine/threonine-protein kinase pim-1 (Homo sapiens) (UniProt P11309)	87
CCn1cnc2c(Nc3cccc(Cl)c3)nc(N[C@@H]3CCCC[C@@H]3N)nc21	Serine/threonine-protein kinase pim-1 (Homo sapiens) (UniProt P11309)	23
O=C1Nc2ccc3ncsc3c2/C1=C/c1c[nH]cn1	Serine/threonine-protein kinase pim-1 (Homo sapiens) (UniProt P11309)	5

Query molecule follows.
Task: # input molecule: "COc1ccc2c(c[n+](C)c3c4cc5c(cc4ccc23)OCO5)c1OC" ; wanted: its residual activity
Result: 93

###

# tested on: Serine/threonine-protein kinase Sgk1 (Homo sapiens) (UniProt O00141)
# Sequence (O00141 whole entry): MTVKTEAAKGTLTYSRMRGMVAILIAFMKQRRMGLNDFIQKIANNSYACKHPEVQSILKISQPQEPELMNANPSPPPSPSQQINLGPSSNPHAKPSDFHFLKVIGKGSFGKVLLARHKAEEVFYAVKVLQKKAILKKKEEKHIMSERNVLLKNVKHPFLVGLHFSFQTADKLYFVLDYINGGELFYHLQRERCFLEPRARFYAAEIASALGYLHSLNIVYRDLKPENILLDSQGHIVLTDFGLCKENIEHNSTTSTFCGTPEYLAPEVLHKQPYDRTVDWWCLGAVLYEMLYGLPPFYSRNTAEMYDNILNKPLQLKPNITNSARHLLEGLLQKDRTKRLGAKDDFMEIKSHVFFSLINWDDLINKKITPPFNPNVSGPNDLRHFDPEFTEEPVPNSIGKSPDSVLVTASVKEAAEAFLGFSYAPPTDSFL
# applied conditions: at 10 µM
test readout: residual activity (%)
Reply numerically in %, unit not repeated.

compound	residual activity (%)
O=c1[nH]c2ccccc2n1C1CCN(Cc2ccc(-c3nc4cc5[nH]cnc5cc4nc3-c3ccccc3)cc2)CC1	68
c1cc(-c2cnn3cc(-c4ccc(OCCN5CCCCC5)cc4)cnc23)ccn1	66
CCn1cnc2c(Nc3cccc(Cl)c3)nc(N[C@@H]3CCCC[C@@H]3N)nc21	90
COc1cc2ncnc(Nc3ccc(OCc4ccccc4)cc3)c2cc1OC	80
COC(=O)[C@@]1(O)C[C@H]2O[C@]1(C)n1c3ccccc3c3c4c(c5c6ccccc6n2c5c31)C(=O)NC4	1

Task: Form field: reported residual activity of C[S+]([O-])c1ccc(-c2nc(-c3ccc(F)cc3)c(-c3ccncc3)[nH]2)cc1 (configuration not stated)
Result: 124

Task: Give its residual activity value. Item: "COc1cc(OC)c(/C=C2\C(=O)Nc3ccccc32)c(OC)c1"
Result: 86

###

# tested on: Maternal embryonic leucine zipper kinase (Homo sapiens)
# applied conditions: at 10 µM
test readout: residual activity (%)
Return type: number; implicit unit %.

compound	tested on	units	residual activity
COc1cc(OC)c(/C=C2\C(=O)Nc3ccccc32)c(OC)c1	Maternal embryonic leucine zipper kinase (Homo sapiens)	%	77
COc1cc2ncnc(Nc3ccc(OCc4ccccc4)cc3)c2cc1OC	Maternal embryonic leucine zipper kinase (Homo sapiens)	%	77
O=C1NC(=O)c2c1c1c3ccccc3n3c1c1c2c2ccccc2n1C1CCC3O1	Maternal embryonic leucine zipper kinase (Homo sapiens)	%	72
COc1ccc2c(c1)/C(=C/c1cnc[nH]1)C(=O)N2	Maternal embryonic leucine zipper kinase (Homo sapiens)	%	3
COC(=O)[C@@]1(O)C[C@H]2O[C@]1(C)n1c3ccccc3c3c4c(c5c6ccccc6n2c5c31)C(=O)NC4	Maternal embryonic leucine zipper kinase (Homo sapiens)	%	-1
c1cc(-c2cnn3cc(-c4ccc(OCCN5CCCCC5)cc4)cnc23)ccn1	Maternal embryonic leucine zipper kinase (Homo sapiens)	%	-1

Task: Recorded residual activity of C[S+]([O-])c1ccc(-c2nc(-c3ccc(F)cc3)c(-c3ccncc3)[nH]2)cc1 (configuration not stated) , please.
Result: 84

Reference for the values: ChEMBL document CHEMBL2218924
